Biological target: T1, rat calcitonin receptor (rat, UniProt P32214 25-516)
T1 construct: whole, on cells; Used as membranes prepared from the transfected cells; also called rCTR; rat calcitonin (a) receptor
T1 sequence (looked up): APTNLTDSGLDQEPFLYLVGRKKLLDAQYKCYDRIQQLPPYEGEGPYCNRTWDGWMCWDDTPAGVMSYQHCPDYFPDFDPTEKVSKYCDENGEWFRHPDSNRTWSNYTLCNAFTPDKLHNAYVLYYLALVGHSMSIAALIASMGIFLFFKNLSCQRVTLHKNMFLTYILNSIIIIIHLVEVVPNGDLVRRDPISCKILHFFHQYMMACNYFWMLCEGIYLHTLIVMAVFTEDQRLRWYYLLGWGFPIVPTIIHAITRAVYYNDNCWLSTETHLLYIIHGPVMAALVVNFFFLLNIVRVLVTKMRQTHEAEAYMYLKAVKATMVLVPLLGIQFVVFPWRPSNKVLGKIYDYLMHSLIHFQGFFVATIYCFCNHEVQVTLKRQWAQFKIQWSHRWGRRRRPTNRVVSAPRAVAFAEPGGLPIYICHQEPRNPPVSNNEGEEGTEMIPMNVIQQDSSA
Test: SPA competition with 125I-calcitonin, membranes of BHK cells with rat calcitonin receptor (Assay VIII)
outcome.measure: IC50 (nM)
Report the value in nM with no unit label.

KCNTATCATQRLANFLRHSSPNFGAIPSSTNVGRNTY (C20 diacid-gGlu acylated on the alpha amino group of the N-terminal residue (Lys 1); disulfide Cys2-Cys7; C-terminal amide, Derivative of human amylin; also called compound 39) [N^α1-[(4S)-4-carboxy-4-(19-carboxynonadecanoylamino)butanoyl]-[Arg17,Pro21,Pro27,Arg34]-h-amylin] : 96.4
KCNTATCATQRLANFLRHSSPNFGAIPSSTNVGSNTY (C20 diacid-gGlu-2xOEG acylated on the alpha amino group of the N-terminal residue (Lys 1); disulfide Cys2-Cys7; C-terminal amide, Derivative of human amylin; also called compound 24) : 350
KCNTATCATQRLANFLRHSSPNFGAIPSSTNVGSETY (C20 diacid-gGlu acylated on the alpha amino group of the N-terminal residue (Lys 1); disulfide Cys2-Cys7; C-terminal amide, Derivative of human amylin; also called compound 23) [N^α1-[(4S)-4-carboxy-4-(19-carboxynonadecanoylamino)butanoyl]-[Arg17,Pro21,Pro27,Glu35]-h-amylin] : 79.9

For reference, reported IC50 for KCNTATCATQRLANFLRHSSPNFGAIPSSTNVGSKTY (C20 diacid-gGlu acylated on the alpha amino group of the N-terminal residue (Lys 1); disulfide Cys2-Cys7; C-terminal amide, Derivative of human amylin; also called compound 34) [N^α1-[(4S)-4-carboxy-4-(19-carboxynonadecanoylamino)butanoyl]-[Arg17,Pro21,Pro27,Lys35]-h-amylin] stands at 89.2

// sample KCNTATCATQRLAEFLRHSSPNFGAIPSSTNVGSNTY (C20 diacid-gGlu-2xOEG acylated on the alpha amino group of the N-terminal residue (Lys 1); disulfide Cys2-Cys7; C-terminal amide, Derivative of human amylin; also called compound 19) , its IC50 was 95.6

For this binder ( KCNTATCATQRLANFLRHSSPNFGAIPSSTNVGHNTY (C20 diacid-gGlu acylated on the alpha amino group of the N-terminal residue (Lys 1); disulfide Cys2-Cys7; C-terminal amide, Derivative of human amylin; also called compound 40) [N^α1-[(4S)-4-carboxy-4-(19-carboxynonadecanoylamino)butanoyl]-[Arg17,Pro21,Pro27,His34]-h-amylin] ), measured IC50 is 69.2
